molecular target: UniProt Q96RI1; test: In Vitro FXR Assay (TK); conditions: CV-1 cells transfected with hFXR, hRXR, TK-ECRE-luc and pCMX-YFP; incubated 18 hrs; luminescence; maximum efficacy <25% of the Fexarmine control classified as '+'
Here the recorded EC50 is given for each entry.

Reported EC50 (UniProt Q96RI1) for entry COc1ccc([C@H]2CC[C@H](CN(c3cc(-c4cnn(C5CC5)c4)cc(C)n3)C(=O)[C@H]3CC[C@H](O)CC3)CC2)cc1C [Compound 5.26] is 250 to 1000 nM

Reported EC50 (UniProt Q96RI1) for entry COc1ccc([C@H]2CC[C@H](CN(C(=O)C3CCCCC3)c3cccc(-c4cnn(C5CC5)c4)c3)CC2)cc1C [Compound 5.24] is ≤ 250 nM

Reported EC50 (UniProt Q96RI1) for entry COc1ncc([C@H]2CC[C@H](CN(c3cccc(-c4cnn(C5CC5)c4)c3)C(=O)[C@H]3CC[C@H](O)CC3)CC2)cc1Cl [Compound 5.10] is ≤ 250 nM

Reported EC50 (UniProt Q96RI1) for entry COc1ccc([C@H]2CC[C@H](CN(c3cccc(-c4cnn(C(C)(C)C)c4)c3)C(=O)[C@H]3CC[C@H](O)CC3)CC2)nc1C [Compound 5.15] is ≤ 250 nM

Reported EC50 (UniProt Q96RI1) for entry COc1ccc([C@H]2CC[C@H](CN(c3cccc(-c4cnn(CCO)c4)c3)C(=O)[C@H]3CC[C@H](O)CC3)CC2)cc1C [Compound 3.05] is ≥ 1000 nM

Reported EC50 (UniProt Q96RI1) for entry COc1ccc([C@H]2CC[C@H](CN(c3cccc(-c4cnn(C(C)C)c4)c3)C(=O)[C@H]3CC[C@H](O)CC3)CC2)cc1C [Compound 3.02] is ≤ 250 nM

====

molecular target: hFXR (Homo sapiens (Human)); experiment: In Vitro FXR Assay (TK); conditions: CV-1 cells transfected with hFXR, hRXR, TK-ECRE-luc and pCMX-YFP; incubated 18 hrs; luminescence; maximum efficacy <25% of the Fexarmine control classified as '+'
pEC50: −log10 of the molar value.
quantity.name: pEC50

Before answering, review these 5 worked examples.
>  <compound>
COc1ccc([C@H]2CC[C@H](CN(c3cccc(-c4ccn(C)n4)c3)C(=O)[C@H]3CC[C@H](O)CC3)CC2)cc1C

>  <test.system>
hFXR (Homo sapiens (Human))

>  <value.observed>
≤ 6.00

$$$$
>  <compound>
COc1ccc([C@H]2CC[C@H](CN(c3cccc(-c4cnn(C5CCOCC5)c4)c3)C(=O)[C@H]3CC[C@H](O)CC3)CC2)cc1C

>  <test.system>
hFXR (Homo sapiens (Human))

>  <value.observed>
≥ 6.60

$$$$
>  <compound>
COc1ccc(C23CCC(CN(c4cccc(-c5cnn(C(C)C)c5)c4)C(=O)[C@H]4CC[C@H](O)CC4)(CC2)CC3)cc1C

>  <test.system>
hFXR (Homo sapiens (Human))

>  <value.observed>
≥ 6.60

$$$$
>  <compound>
CN(C)c1ccc(C23CCC(CN(c4cccc(-c5cnn(C6CC6)c5)c4)C(=O)[C@H]4CC[C@H](O)CC4)(CC2)CC3)cn1

>  <test.system>
hFXR (Homo sapiens (Human))

>  <value.observed>
≥ 6.60

$$$$
>  <compound>
Cn1nc(F)c2cc([C@H]3CC[C@H](CN(c4cccc(-c5cnn(C6CC6)c5)c4)C(=O)[C@H]4CC[C@H](O)CC4)CC3)ccc21

>  <test.system>
hFXR (Homo sapiens (Human))

>  <value.observed>
≥ 6.60

$$$$

Next, consider the following compound.
Given item `COc1ccc([C@H]2CC[C@H](CN(c3cccc(-c4cnn(C(C)C)c4)c3)C(=O)[C@H]3CC[C@@](C)(O)CC3)CC2)cc1C` , the value recorded as its pEC50 is ≥ 6.60

====

biological target: hFXR (Homo sapiens (Human), UniProt Q96RI1); assay: In Vitro FXR Assay (TK); assay type: cell-based; settings: CV-1 cells transfected with hFXR, hRXR, TK-ECRE-luc and pCMX-YFP; incubated 18 hrs; luminescence; maximum efficacy <25% of the Fexarmine control classified as '+'
Sequence (Q96RI1 whole entry): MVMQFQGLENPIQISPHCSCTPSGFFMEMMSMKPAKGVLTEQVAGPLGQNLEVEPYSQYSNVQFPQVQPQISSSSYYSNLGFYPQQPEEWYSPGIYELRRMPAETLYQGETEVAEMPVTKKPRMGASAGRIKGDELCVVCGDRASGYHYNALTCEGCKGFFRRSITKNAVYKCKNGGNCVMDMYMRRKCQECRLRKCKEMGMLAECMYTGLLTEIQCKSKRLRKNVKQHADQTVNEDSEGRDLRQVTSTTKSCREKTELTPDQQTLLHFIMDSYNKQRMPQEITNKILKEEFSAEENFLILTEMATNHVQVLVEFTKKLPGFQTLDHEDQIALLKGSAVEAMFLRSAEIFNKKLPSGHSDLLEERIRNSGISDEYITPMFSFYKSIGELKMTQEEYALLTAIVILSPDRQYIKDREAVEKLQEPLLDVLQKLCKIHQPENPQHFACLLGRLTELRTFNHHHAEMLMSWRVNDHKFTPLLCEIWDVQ
Sequence (P19793 whole entry partner): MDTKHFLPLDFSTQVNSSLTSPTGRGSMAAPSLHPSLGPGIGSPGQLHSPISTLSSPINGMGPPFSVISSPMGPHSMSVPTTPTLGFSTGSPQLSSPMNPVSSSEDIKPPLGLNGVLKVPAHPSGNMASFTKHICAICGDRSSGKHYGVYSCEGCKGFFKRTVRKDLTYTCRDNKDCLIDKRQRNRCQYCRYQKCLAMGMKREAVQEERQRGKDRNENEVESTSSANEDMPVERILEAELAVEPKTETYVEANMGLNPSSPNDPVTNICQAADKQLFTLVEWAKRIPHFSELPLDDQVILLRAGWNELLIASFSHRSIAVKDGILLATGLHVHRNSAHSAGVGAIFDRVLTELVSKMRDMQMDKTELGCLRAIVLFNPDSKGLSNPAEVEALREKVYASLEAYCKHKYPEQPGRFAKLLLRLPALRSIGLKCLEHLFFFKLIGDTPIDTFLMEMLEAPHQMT
pEC50: −log10 of the molar value.
quantity.name: pEC50

Before answering, review these 3 worked examples.
>  <compound>
COc1ccc([C@H]2CC[C@H](CN(c3cc(-c4cnn(C5CC5)c4)ccn3)C(=O)[C@H]3CC[C@H](O)CC3)CC2)cc1C

>  <test.system>
hFXR (Homo sapiens (Human), UniProt Q96RI1)

>  <pEC50>
≥ 6.60

$$$$
>  <compound>
COc1ccc(C23CCC(CN(c4cc(-c5cnn(C6CC6)c5)ccn4)C(=O)[C@H]4CC[C@H](O)CC4)(CC2)CC3)cc1C

>  <test.system>
hFXR (Homo sapiens (Human), UniProt Q96RI1)

>  <pEC50>
≥ 6.60

$$$$
>  <compound>
COc1ccc([C@H]2CC[C@H](CN(c3cccc(-c4cnn(C(C)C)c4)c3)C(=O)[C@H]3CC[C@H](O)CC3)CC2)cc1C#N

>  <test.system>
hFXR (Homo sapiens (Human), UniProt Q96RI1)

>  <pEC50>
≥ 6.60

$$$$

Next, consider the following compound.
Reported pEC50 (hFXR (Homo sapiens (Human), UniProt Q96RI1)) for entry `COc1ccc([C@H]2CC[C@H](CN(c3cccc(-n4cc(C)cn4)c3)C(=O)[C@H]3CC[C@H](O)CC3)CC2)cc1C` is 6.00 to 6.60
